# method_notes: ATG_NRF2_ARE_CIS: Attagene CIS-FACTORIAL HepG2 Assay for human Nuclear Factor Erythroid 2 Related Factor 2 (NFR2) response to Antioxidant Response Elements (ARE) (AID 2282992)
# study_conditions: HepG2 Attagene ARE/NRF2 reporter, transcription factor activity; actives raise or lower the signal
The source made the active and inactive calls. How the source made its calls: active means hit-call score of the fitted dose curve at least 0.9, where 1 is the maximum; inactive means score below 0.9.
Labels: active, inactive

| molecule | category_label |
| --- | --- |
| CN1CCCC1=O | inactive |
| Nc1ccc2c(c1)C(=O)c1ccccc1C2=O | active |
| C[Si]1(C)O[Si](C)(C)O[Si](C)(C)O[Si](C)(C)O1 | inactive |
| CCCCCCCCCCCCCCCC | inactive |

* * *

# method_notes: ATG_TCF_b_cat_CIS: Attagene CIS-FACTORIAL HepG2 Assay for human T-Cell-Factor with beta-catenin (TCF/b-cat) (AID 2282965)
# study_conditions: HepG2 TCF/beta-catenin cis-reporter transcription, actives raise or lower the signal
Calls of active or inactive are those of the source. The calls were made as follows: active = hit-call score of the fitted dose curve at least 0.9, where 1 is the maximum; inactive = score below 0.9.
Outcome codes: active, inactive

| compound | category_label |
| --- | --- |
| CN[C@H]1CC[C@@H](c2ccc(Cl)c(Cl)c2)c2ccc(S(N)(=O)=O)cc21 | inactive |
| CCOC(=O)C(C)(C)Oc1ccc(Cl)cc1 | inactive |
| CC(=O)C(C)=CC1C(C)=CCCC1(C)C (centres undefined) | inactive |
| O=c1[nH]cc(F)c(=O)[nH]1 | inactive |
| COc1cc(S(=O)(=O)O)c(C)cc1N=Nc1c(O)ccc2cc(S(=O)(=O)O)ccc12 | inactive |
| CCCc1cc(=O)[nH]c(=S)[nH]1 | inactive |
| CCCCCCCCCCC | inactive |
| NCC1(Cc2noc(=O)[nH]2)CCCCC1 | inactive |
| CCCCCCCCCCCCCCCCCC(=O)O | inactive |
| COc1cc(/C=C/C(=O)CC(=O)/C=C/c2ccc(O)c(OC)c2)ccc1O | active |
| NCCO | inactive |
| c1cc(-c2ccncc2)ccn1 | inactive |
| CCc1c(C(=O)NN2CCCCC2)nn(-c2ccc(Cl)cc2Cl)c1-c1ccc(Br)cc1 | active |
| COc1ccc(C)cc1N | inactive |
| CCCCCCCCCCCCCCCC | inactive |
| Cc1oc(-c2ccccc2)nc1CCOc1cccc2c1ccn2CCC(=O)O | inactive |
| Cc1nc(C)nc(N2C[C@@H](C)N(c3ccnc([C@@H](C)O)n3)[C@@H](C)C2)n1 | inactive |
| CC(C)c1ccc(C(=O)N=C(N)N)cc1S(C)(=O)=O | inactive |
| CC1(C)CC(N=C=O)CC(C)(CN=C=O)C1 (centres undefined) | inactive |
| CNCc1cc(F)ccc1Oc1ccc(Cl)c(Cl)c1 | inactive |
| CCCCCCOCCO | inactive |
| Cc1ccc(C(C)C)c(O)c1 | inactive |
| CCCCCC(=O)O | inactive |
| COC(=O)c1ccc(O)cc1 | inactive |
| C[Si]1(C)O[Si](C)(C)O[Si](C)(C)O[Si](C)(C)O1 | inactive |
| Oc1ccc2c(c1)OC[C@@H](N1CCC(O)(c3ccc(F)cc3)CC1)[C@H]2O | inactive |
| Cc1cc(=O)[nH]c(=S)[nH]1 | inactive |
| NS(=O)(=O)c1cc2c(cc1Cl)NCNS2(=O)=O | inactive |
| COCCOCCOC | inactive |
| CCCCC(CC)COC(=O)CC(C(=O)OCC(CC)CCCC)S(=O)(=O)O (centres undefined) | inactive |
| CN1CCN(Cc2cc(-c3ccc4[nH]c(=O)oc4c3)co2)[C@@H](c2ccc(F)cc2)C1 | active |
| Cc1ccc(C)c(O)c1C | inactive |
| COc1cccc2c1C(=O)c1c(O)c3c(c(O)c1C2=O)C[C@@](O)(C(=O)CO)C[C@@H]3O[C@H]1C[C@H](N)[C@H](O)[C@H](C)O1 | active |
| CCCCCCC(=O)OCC | inactive |
| Cc1cc(NC(=O)C(=O)O)cc(C)c1Oc1ccc(O)c2c1CCC2 | inactive |
| Cc1cccc(Nc2cc(Cl)nc(SCC(=O)O)n2)c1C | inactive |
| CNC(=O)[C@H]1O[C@@H](n2cnc3c(NCc4cc(Cl)ccc4OCc4cc(C)no4)ncnc32)[C@H](O)[C@@H]1N | inactive |
| Cc1ccc(N(C)C)cc1 | inactive |
| O=C(O)CCCCC(=O)O | inactive |

* * *

# method_notes: BSK_hDFCGF_Proliferation: Cell Proliferation Assessment in the BioMAP Diversity Plus: hDFCGF Assay (AID 2283059);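 further: curves fitted for both rise and fall of signal versus DMSO baseline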
# study_conditions: primary human foreskin fibroblasts
Activity calls are given as the source filed them. The calls were made as follows: active = hit-call score of the fitted dose curve at least 0.9, where 1 is the maximum; inactive = score below 0.9.
Labels: y (active), n (inactive)

| compound | category_label |
| --- | --- |
| COc1ccc(C)cc1N | n |
| NS(=O)(=O)c1cc2c(cc1Cl)NCNS2(=O)=O | n |
| O=C(O)CCCCC(=O)O | n |
| c1cc(-c2ccncc2)ccn1 | n |
| CCCCCCCCCCCCCCCCCC(=O)O | n |
| CN1CCN(Cc2cc(-c3ccc4[nH]c(=O)oc4c3)co2)[C@@H](c2ccc(F)cc2)C1 | y |
| Cc1cccc(Nc2cc(Cl)nc(SCC(=O)O)n2)c1C | n |
| CCCCCCCC=O | n |
| Clc1cc(Cl)c(Cl)cc1Cl | n |
| Cc1ccc(C(C)C)c(O)c1 | n |
| CC(CO)OC(C)CO (stereo not drawn) (tested in a mixture with another compound) | n |
| O=c1c(O)c(-c2ccc(O)c(O)c2)oc2cc(O)cc(O)c12 | y |
| Nc1ccc(S(=O)(=O)c2ccc(N)cc2)cc1 | n |
| FC(F)(F)C(F)(F)C(F)(F)C(F)(F)C(F)(F)C(F)(F)CCI | n |
| Cc1ccc(Cl)cc1 | y |
| COc1ccc2c(c1)c(CC(=O)O)c(C)n2C(=O)c1ccc(Cl)cc1 | y |
| O=[N+]([O-])C(CO)(CO)CO | y |
| COc1cc(C=O)ccc1O | n |
| O=C(N[C@@H](Cc1ccccc1)[C@@H](O)C(=O)N1C[C@@H](O)[C@@H](O)C1)c1cc2cc(Cl)ccc2[nH]1 | n |
| Cc1ccc(N(C)C)cc1 | n |
| C[Si]1(C)O[Si](C)(C)O[Si](C)(C)O[Si](C)(C)O1 | n |
| CCOc1ccc2c(c1)C(C)=CC(C)(C)N2 | y |
| Oc1ccc2ccccc2c1N=Nc1ccccc1 | y |
| Cc1ccccc1Cl | n |
| CCCCCCCCCCCCCO | y |
| Cc1nc(-c2ccc3c(c2)CCN(CCC2CCC(NC(=O)/C=C/c4ccc(F)cc4)CC2)CC3)no1 (stereo not drawn) | n |
| Cc1ccc2ncccc2c1 | n |
| COCCOCCOC | n |
| NC(=O)Cn1c(=O)cc(CCN2CCN(c3nccc4sccc34)CC2)c2ccc(F)cc21 | n |
| O=c1[nH]cc(F)c(=O)[nH]1 | y |
| CC(=O)Oc1ccccc1C(=O)O | n |
| O=C(O)Cc1ccccc1Nc1c(Cl)cccc1Cl | y |
| CCCCCC(=O)O | n |
| Cc1c(C(=O)O)c(O)cc2c1C(=O)c1c(O)c([C@@H]3O[C@H](CO)[C@@H](O)[C@H](O)[C@H]3O)c(O)c(O)c1C2=O | y |
| CC(=O)OC/C=C(\C)CCC=C(C)C | y |
| CNC(=O)[C@H]1O[C@@H](n2cnc3c(NCc4cc(Cl)ccc4OCc4cc(C)no4)ncnc32)[C@H](O)[C@@H]1N | n |
| CCCCCCOCCO | n |
| Cc1cc(NC(=O)C(=O)O)cc(C)c1Oc1ccc(O)c2c1CCC2 | n |
| CC1=C(/C=C/C(C)=C/C=C/C(C)=C/CO)C(C)(C)CCC1 | y |
| CCCCCCCCCCO | n |
| CN[C@H]1CC[C@@H](c2ccc(Cl)c(Cl)c2)c2ccc(S(N)(=O)=O)cc21 | y |
| CCCCc1ccc2c(n1)[C@@H](c1ccc(OC)cc1C[C@H](C)C(=O)O)[C@H](C(=O)O)[C@H]2c1ccc2c(c1)OCO2 | n |
| Cc1ccc(C)c(O)c1C | n |
| CCCCCCCCCCCCCCCC | n |
| Oc1ccc2c(c1)OC[C@@H](N1CCC(O)(c3ccc(F)cc3)CC1)[C@H]2O | n |
| CC=Cc1ccc(O)c(OC)c1 | y |
| CN1CCCC1=O | n |
| CC1(C)NC(=O)NC1=O | n |

* * *

# Read-out: Interleukin-8 (IL8), CXCL8 (gene 3576)
# method_notes: BSK_LPS_IL8: BioMAP Diversity Plus: LPS Assay for Interleukin-8 (IL8) Biomarker Activity (AID 2283078)
# study_conditions: primary human HUVEC with PBMC; actives raise or lower the signal
Activity calls are given as the source filed them. The calls were made as follows: active = hit-call score of the fitted dose curve at least 0.9, where 1 is the maximum; inactive = score below 0.9.
Labels: active, inactive

| compound | category_label |
| --- | --- |
| OC[C@@H](O)[C@@H](O)[C@H](O)[C@H](O)CO | inactive |
| CC(CO)OC(C)CO (configuration not stated) (tested in a mixture with another compound) | inactive |
| O=[N+]([O-])C(CO)(CO)CO | inactive |
| NC(=O)Cn1c(=O)cc(CCN2CCN(c3nccc4sccc34)CC2)c2ccc(F)cc21 | inactive |
| CN1CCN(Cc2cc(-c3ccc4[nH]c(=O)oc4c3)co2)[C@@H](c2ccc(F)cc2)C1 | inactive |
| CCNc1cccc(C)c1 | inactive |
| NS(=O)(=O)c1cc2c(cc1Cl)NCNS2(=O)=O | inactive |
| Clc1cc(Cl)c(Cl)cc1Cl | inactive |
| CCCCC(CC)COC(=O)CC(C(=O)OCC(CC)CCCC)S(=O)(=O)O (configuration not stated) | active |
| CC1(C)NC(=O)NC1=O | inactive |
| COCCOC[C@H](CC1(C(=O)NC2CCC(C(=O)O)CC2)CCCC1)C(=O)Oc1ccc2c(c1)CCC2 (some centres not stated) | inactive |
| NCC1(Cc2noc(=O)[nH]2)CCCCC1 | inactive |
| CCCCCC(=O)O | inactive |
| CC1=C(/C=C/C(C)=C/C=C/C(C)=C/CO)C(C)(C)CCC1 | inactive |
| CCCCCCCCCCC | inactive |
| CCCCN(CCCC)CCCC | inactive |
| Cc1ccc(Cl)cc1 | inactive |
